Test system: GTPase KRas (Homo sapiens), P01116 [G12C]
Sequence (P01116 whole entry G12C): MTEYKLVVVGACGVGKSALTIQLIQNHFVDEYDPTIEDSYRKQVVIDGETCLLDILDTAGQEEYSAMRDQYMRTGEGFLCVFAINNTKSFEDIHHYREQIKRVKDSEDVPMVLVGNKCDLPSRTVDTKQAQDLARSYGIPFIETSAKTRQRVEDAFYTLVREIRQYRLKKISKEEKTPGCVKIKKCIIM
ASSAY REMARKS: Inhibition of KRAS G12C mutant (unknown origin) at 10 uM incubated for 0.2 hrs in presence of GDP by rapidfire mass spectrometry analysis relative to control
MEASURED METRIC: inhibition (%)
Form entry: value (%) — number only.

Q: Fill in: inhibition on GTPase KRas (Homo sapiens), P01116 [G12C], entry `C=CC(=O)N1CC(NC(=O)Cn2cc(C(=O)N3CCc4ccccc4C3)c3cc(Br)ccc32)C1`
Result: 100

Q: Fill in: inhibition on GTPase KRas (Homo sapiens), P01116 [G12C], entry `C=CC(=O)N1CC(NC(=O)Cn2cc(C(=O)N3CCc4c(cccc4OC)C3)c3cc(Br)cc(C)c32)C1`
Result: 100

Q: Fill in: inhibition on GTPase KRas (Homo sapiens), P01116 [G12C], entry `C=CC(=O)N1CC(NC(=O)Cn2cc(C(=O)N3CCc4cc(Cl)ccc4C3)c3cc(Br)ccc32)C1`
Result: 55

Q: Fill in: inhibition on GTPase KRas (Homo sapiens), P01116 [G12C], entry `C=CC(=O)N1CC(NC(=O)Cn2cc(C(=O)N3CCc4c(Cl)cccc4C3)c3cc(Br)ccc32)C1`
Result: 67

Q: Fill in: inhibition on GTPase KRas (Homo sapiens), P01116 [G12C], entry `C=CC(=O)N1CC(NC(=O)Cn2cc(C(=O)N3CCc4cc(F)ccc4C3)c3cc(Br)ccc32)C1`
Result: 86

Q: Fill in: inhibition on GTPase KRas (Homo sapiens), P01116 [G12C], entry `C=CC(=O)N1CC(NC(=O)Cn2cc(C(=O)N3CCc4c(cccc4OC)C3)c3cc(Br)ccc32)C1`
Result: 92

Q: Fill in: inhibition on GTPase KRas (Homo sapiens), P01116 [G12C], entry `C=CC(=O)N1CC(NC(=O)Cn2c(C3CC3)c(C(=O)N3CCc4c(cccc4OC)C3)c3cc(Cl)cc(C)c32)C1`
Result: 94

Q: Fill in: inhibition on GTPase KRas (Homo sapiens), P01116 [G12C], entry `C=CC(=O)N1CC(NC(=O)Cn2c(C)c(C(=O)N3CCc4c(cccc4OC)C3)c3cc(Br)ccc32)C1`
Result: 91

---

ASSAY REMARKS: Half-life in mouse at 10 mg/kg, po
Type: ADME, organism-based
MEASUREMENT PARAMETERS: in vivo
MEASURED METRIC: half-life
# answer = value followed by unit

Q: Give recorded half-life. `C=CC(=O)N1CC(NC(=O)Cn2c(C3CC3)c(C(=O)N3CCc4c(cccc4OC)C3)c3cc(Cl)cc(C)c32)C1`
Result: 54 min

---

ASSAY REMARKS: Hepatic intrinsic clearance in mouse hepatocytes assessed per 10^6 cells at 0.5 uM after 60 mins
Format: ADME, cell-based, Hepatocyte
MEASUREMENT PARAMETERS: read-out: CLH
MEASURED METRIC: hepatocyte CLint at 0.5 µM (µL/min/1e6 cells)
Form entry: value (µL/min/1e6 cells) — number only.

Q: Give recorded hepatocyte CLint at 0.5 µM. `C=CC(=O)N1CC(NC(=O)Cn2c(C3CC3)c(C(=O)N3CCc4c(cccc4OC)C3)c3cc(Cl)cc(C)c32)C1`
Result: 228

---

Test system: MIA PaCa-2
ASSAY REMARKS: Cytotoxicity against human MIAPaCa2 cells assessed as reduction in cell viability measured after 72 hrs by Celltiter-Glo luminescent cell viability assay
Type: functional, cell-based
MEASUREMENT PARAMETERS: MIA PaCa-2, 72 h
MEASURED METRIC: IC50 (nM)
Form entry: value (nM) — number only.

Q: Give recorded IC50. `C=CC(=O)N1CC(NC(=O)Cn2c(C3CC3)c(C(=O)N3CCc4c(cccc4OC)C3)c3cc(Cl)cc(C)c32)C1`
Result: 67

---

inhibition: recorded values
Test system: GTPase KRas (Homo sapiens), P01116 [G12C]
ASSAY REMARKS: Inhibition of KRAS G12C mutant (unknown origin) at 10 uM incubated for 0.2 hrs in presence of GDP by rapidfire mass spectrometry analysis relative to control
Form entry: value (%) — number only.

Before answering, review these 4 worked examples.
- STRUCTURE SMILES STRING: "C=CC(=O)N1CC(NC(=O)Cn2c(C)c(C(=O)N3CCc4c(cccc4OC)C3)c3cc(Br)cc(C)c32)C1"
  inhibition [%]: 39
- STRUCTURE SMILES STRING: "C=CC(=O)N1CC(NC(=O)Cn2c(C3CC3)c(C(=O)N3CCc4c(cccc4OC)C3)c3cc(Br)ccc32)C1"
  inhibition [%]: 90
- STRUCTURE SMILES STRING: "C=CC(=O)N1CC(NC(=O)Cn2c(C)c(C(=O)N3CCc4c(cccc4OC)C3)c3cc(Cl)cc(C)c32)C1"
  inhibition [%]: 85
- STRUCTURE SMILES STRING: "C=CC(=O)N1CC(NC(=O)Cn2cc(C(=O)N3CCc4c(F)cccc4C3)c3cc(Br)ccc32)C1"
  inhibition [%]: 77

Q: Give recorded inhibition. `C=CC(=O)N1CC(NC(=O)Cn2c(C)c(C(=O)N3CCc4c(cccc4OC)C3)c3cc(Cl)ccc32)C1`
Result: 34
